Target: horse serum BChE (hsBChE) (Equus caballus, UniProt P81908)
Construct: horse serum BChE (hsBChE); purchased Sigma-Aldrich; host or cells: horse serum
Sequence (P81908 whole entry): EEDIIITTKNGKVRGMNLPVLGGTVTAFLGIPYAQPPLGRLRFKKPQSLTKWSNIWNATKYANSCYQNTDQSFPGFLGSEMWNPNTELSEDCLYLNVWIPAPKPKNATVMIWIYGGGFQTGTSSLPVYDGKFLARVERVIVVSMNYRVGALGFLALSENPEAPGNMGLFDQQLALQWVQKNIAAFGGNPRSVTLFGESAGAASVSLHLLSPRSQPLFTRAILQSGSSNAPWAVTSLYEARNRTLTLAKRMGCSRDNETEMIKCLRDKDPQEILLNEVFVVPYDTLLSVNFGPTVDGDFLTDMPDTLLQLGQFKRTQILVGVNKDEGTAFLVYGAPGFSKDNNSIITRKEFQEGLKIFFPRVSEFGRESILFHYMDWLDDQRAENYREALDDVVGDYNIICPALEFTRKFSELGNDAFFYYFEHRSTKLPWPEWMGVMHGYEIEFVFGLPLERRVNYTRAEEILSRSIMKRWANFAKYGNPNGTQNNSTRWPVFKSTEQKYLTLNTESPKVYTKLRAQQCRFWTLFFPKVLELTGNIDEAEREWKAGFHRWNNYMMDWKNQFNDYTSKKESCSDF
Assay: Cholinesterase inhibition assay (modified Ellman method), hsBChE
Type: biochemical
Conditions: mean ± SEM of three independent measurements; / = No activity; read-out: Enzyme Inhibition hsBChE IC50
Known IC50 of a selection of compounds

compound	value_qualifier	IC50 [µM]
O=[C]=[Ru-2]12(=[C]=O)([O][n+]3ccccc3[S]1)[O][n+]1ccccc1[S]2 [Complex 8, [Ru(L1)2(CO)2]]	>	100
Cc1ccc(C(C)C)cc1.FC(F)(F)C1=[O+][Ru-]([P+]23CN4CN(CN(C4)C2)C3)[O]C(c2ccccc2Br)=C1.F[P-](F)(F)(F)(F)F [Complex 7, [RuCym(L2)pta]PF6]	=	19.2
O=C(CC(=O)C(F)(F)F)c1ccccc1Br [Complex L2, reference compound]	>	100
CCCCCCCCCCCCCCCCCC(=O)CC(=O)c1ccccc1 [Complex L3, 1-phenylicosane-1,3-dione, reference compound]	>	100
CN(C)C(=O)Oc1cccc([N+](C)(C)C)c1 [Neostigmine methylsulphate, reference compound]	=	92.7

The origin of these recorded values is paper PMC8467340.
